# Tested on: ATP;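 note: ATP exposure 15 min at 22 °C before imaging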
# assayName: switch fluorescence ratio, 500 uM ATP over buffer (Cy3 cluster intensity, sum of 5 cycles each) (fold (ratio)); higher = stronger signal-on switching upon ATP binding; sequences stand for … in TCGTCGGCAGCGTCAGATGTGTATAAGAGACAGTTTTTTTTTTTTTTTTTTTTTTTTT…TC
# recordedConditions: aptamer strand: ATP DNA aptamer (quencher-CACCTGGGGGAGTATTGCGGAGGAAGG + anchor), 100 nM annealed; ATP concentration: 500 uM
Here the recorded switch fluorescence ratio is given for each entry.
Would you mind answering with just the numeric figure?

Please review the following examples before continuing.
>>> quantitativeresult("TGTGAATGGG")
1.02
>>> quantitativeresult("TCATGAAAAG")
0.997
>>> quantitativeresult("CGGGCCCGTA")
0.961

Quote switch fluorescence ratio reported for "AGCTGACCGA" please. 1.08

Please give measured switch fluorescence ratio of the following entry: "TGGAATTTGG" 1

Look up and report measured switch fluorescence ratio for this entry: "AAGCTCTGTG" 0.95

Kindly indicate its recorded switch fluorescence ratio. Item: "ATGGGGGTCA" 0.998

Quote switch fluorescence ratio reported for "AAGGCACGCT" please. 1

Find the measured switch fluorescence ratio of "TGAGTATTTA" and report it. 0.993

---

We begin with a simple list: items and their reported switch fluorescence ratio.
# System: ATP;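 note: ATP exposure 15 min at 22 °C before imaging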
# assayName: switch fluorescence ratio, 500 uM ATP over buffer (Cy3 cluster intensity, sum of 5 cycles each) (fold (ratio)); higher = stronger signal-on switching upon ATP binding; sequences stand for … in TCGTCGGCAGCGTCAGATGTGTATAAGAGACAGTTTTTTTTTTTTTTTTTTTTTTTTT…TC
# recordedConditions: aptamer strand: ATP DNA aptamer (quencher-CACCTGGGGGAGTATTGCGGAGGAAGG + anchor), 100 nM annealed; ATP concentration: 500 uM
Give only the figure.

Check out these entries, answers already filled in.
>>> quantitativeresult("ACAAGCTTGT")
0.975
>>> quantitativeresult("CTGGTACGGA")
1.02
>>> quantitativeresult("CGGAGTAGGG")
1.06

// next item, switch fluorescence ratio requested
State the measured switch fluorescence ratio (ATP) of "CTGCTAGACC" 1.21

---

# Tested on: ATP;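 note: ATP exposure 15 min at 22 °C before imaging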
# assayName: switch fluorescence ratio, 500 uM ATP over buffer (Cy3 cluster intensity, sum of 5 cycles each) (fold (ratio)); higher = stronger signal-on switching upon ATP binding; sequences stand for … in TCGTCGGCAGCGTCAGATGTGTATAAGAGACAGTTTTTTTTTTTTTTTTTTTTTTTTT…TC
# recordedConditions: aptamer strand: ATP DNA aptamer (quencher-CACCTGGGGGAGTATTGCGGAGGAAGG + anchor), 100 nM annealed; ATP concentration: 500 uM
Below, each entry is listed with its recorded switch fluorescence ratio.
Please give the numeric answer without any surrounding text.

Examples with answers:
>>> quantitativeresult("GGGTGATCGG")
0.984
>>> quantitativeresult("GGATATGTTG")
0.994
>>> quantitativeresult("TATTTTTGTG")
0.985
>>> quantitativeresult("TGAGGTTGAG")
1.03
>>> quantitativeresult("ATAGATGAGT")
1.01

Give the measured switch fluorescence ratio for "GAAGGAAGTG" 1

Give reported switch fluorescence ratio value for "GGTTGTTCGT" 1.01

Consider the sequence "AATTGTGTTT" . State its measured switch fluorescence ratio. 1.01

Recall and state the measured switch fluorescence ratio for "CGGTCGCTGG" . 0.991

Identify measured switch fluorescence ratio associated with "TGATGATCC" 1.01
